test system: Sarcoma-180; experiment: Antineoplastic activity against mouse sarcoma 180 cells allografted in CD-1 mouse assessed as increase in survival rate at 60 mg/kg, qd administered for 6 days relative to control; assay type: functional
Entries whose T/C is below 300% take Yes; entries at or above 300% take No.

1) O=S(=O)(N/N=C/c1cccc[n+]1[O-])c1cccc2ccccc12	Yes
2) O=S(=O)(N/N=C/c1cccc[n+]1[O-])c1cccnc1	Yes
3) Cc1ccccc1S(=O)(=O)N/N=C/c1cccc[n+]1[O-]	Yes
4) C/C(=N\NS(=O)(=O)c1ccccc1)c1cccc[n+]1[O-]	Yes
5) O=S(=O)(N/N=C/c1cccc[n+]1[O-])c1ccc(F)cc1	No
6) O=[N+]([O-])c1cccc(S(=O)(=O)N/N=C/c2cccc[n+]2[O-])c1	No
7) Nc1ccc(S(=O)(=O)N/N=C/c2cccc[n+]2[O-])cc1	Yes
